# experimental_system: Penicillin-binding protein 1A (Streptococcus pneumoniae serotype 4 (strain ATCC BAA-334 / TIGR4))
# Sequence (Q04707 whole entry): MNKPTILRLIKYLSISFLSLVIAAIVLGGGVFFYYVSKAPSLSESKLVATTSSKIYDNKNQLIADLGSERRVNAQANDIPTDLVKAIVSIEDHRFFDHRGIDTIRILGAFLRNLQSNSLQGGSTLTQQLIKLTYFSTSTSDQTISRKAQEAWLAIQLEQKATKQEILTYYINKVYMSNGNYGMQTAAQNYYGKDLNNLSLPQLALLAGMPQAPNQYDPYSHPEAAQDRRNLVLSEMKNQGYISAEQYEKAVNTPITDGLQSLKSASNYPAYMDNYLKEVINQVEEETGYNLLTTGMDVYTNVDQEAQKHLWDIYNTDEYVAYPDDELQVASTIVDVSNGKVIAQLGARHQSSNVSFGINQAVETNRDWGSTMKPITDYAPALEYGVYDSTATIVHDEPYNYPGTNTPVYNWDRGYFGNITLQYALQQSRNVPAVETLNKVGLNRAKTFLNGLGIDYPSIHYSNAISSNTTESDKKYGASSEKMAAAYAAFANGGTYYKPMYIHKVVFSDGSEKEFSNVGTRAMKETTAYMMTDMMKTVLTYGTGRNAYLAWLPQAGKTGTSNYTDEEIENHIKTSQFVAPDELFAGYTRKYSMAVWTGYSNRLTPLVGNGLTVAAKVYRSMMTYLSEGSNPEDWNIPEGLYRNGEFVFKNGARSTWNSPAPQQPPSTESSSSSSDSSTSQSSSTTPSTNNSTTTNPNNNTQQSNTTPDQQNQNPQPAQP
# experimental_protocol: Displacement of Biocillin FL from Streptococcus pneumoniae 1076 PBP1A
Examples of compounds with documented log10(IC50) follow.
# values: log10(IC50), units µM

| compound | log10(IC50) |
| --- | --- |
| CC1(C)S[C@@H]2[C@H](NC(=O)[C@H](N)c3ccc(O)cc3)C(=O)N2[C@H]1C(=O)O | -0.92 |
| CO/N=C(\C(=O)N[C@@H]1C(=O)N2C(C(=O)O)=C(COC(N)=O)CS[C@H]12)c1ccco1 | -2.03 |
| CC1(C)S[C@@H]2[C@H](NC(=O)Cc3ccccc3)C(=O)N2[C@H]1C(=O)O | -1.32 |
| C[C@@H](O)[C@H]1C(=O)N2C(C(=O)O)=C(SCCNC=N)C[C@H]12 [IMIPENEM ANHYDROUS] | -0.52 |

Then this compound:
Request the reported log10(IC50) associated with C[C@@H](O)[C@H]1C(=O)N2C(C(=O)O)=C([C@H]3CCCO3)S[C@H]12 -1.28

---

# experimental_system: Penicillin-binding protein 2B (Streptococcus pneumoniae serotype 4 (strain ATCC BAA-334 / TIGR4))
# Sequence (P0A3M5 whole entry): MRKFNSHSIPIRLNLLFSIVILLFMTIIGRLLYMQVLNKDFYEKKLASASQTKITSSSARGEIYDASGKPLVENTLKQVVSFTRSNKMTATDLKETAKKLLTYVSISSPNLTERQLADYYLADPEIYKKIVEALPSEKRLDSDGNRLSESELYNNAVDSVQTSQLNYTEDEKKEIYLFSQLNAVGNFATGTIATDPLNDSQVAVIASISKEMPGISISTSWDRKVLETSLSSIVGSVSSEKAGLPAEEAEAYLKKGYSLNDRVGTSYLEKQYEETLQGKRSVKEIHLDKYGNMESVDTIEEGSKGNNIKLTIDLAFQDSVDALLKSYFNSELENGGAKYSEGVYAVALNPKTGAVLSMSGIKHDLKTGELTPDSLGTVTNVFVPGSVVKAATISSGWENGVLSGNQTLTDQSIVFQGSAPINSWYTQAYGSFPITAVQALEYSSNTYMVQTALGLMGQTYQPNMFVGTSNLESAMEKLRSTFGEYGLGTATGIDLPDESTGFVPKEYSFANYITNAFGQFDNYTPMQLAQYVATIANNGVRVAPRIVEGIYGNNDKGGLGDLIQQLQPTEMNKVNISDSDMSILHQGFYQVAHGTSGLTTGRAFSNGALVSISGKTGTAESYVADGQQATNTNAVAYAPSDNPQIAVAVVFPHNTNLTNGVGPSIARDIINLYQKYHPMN
# experimental_protocol: Displacement of Biocillin FL from Streptococcus pneumoniae 3243 PBP2B
Mark label 1 only for IC50 values smaller than 200 nM; exact matches and larger values are label 0.

Some solved cases for reference:
| compound | group |
| --- | --- |
| CC1(C)S[C@@H]2[C@H](NC(=O)Cc3ccccc3)C(=O)N2[C@H]1C(=O)O | label 1 |
| CC1(C)S[C@@H]2[C@H](NC(=O)[C@H](N)c3ccc(O)cc3)C(=O)N2[C@H]1C(=O)O | label 1 |
| C[C@@H](O)[C@H]1C(=O)N2C(C(=O)O)=C(SCCNC=N)C[C@H]12 [IMIPENEM ANHYDROUS] | label 0 |
| CO/N=C(\C(=O)N[C@@H]1C(=O)N2C(C(=O)O)=C(COC(N)=O)CS[C@H]12)c1ccco1 | label 1 |

Now look at this one.
Hello, is IC50 of the following compound strictly smaller than 200 nM? C[C@@H](O)[C@H]1C(=O)N2C(C(=O)O)=C([C@H]3CCCO3)S[C@H]12 label 1

---

# experimental_system: Penicillin-binding protein 2B (Streptococcus pneumoniae serotype 4 (strain ATCC BAA-334 / TIGR4))
# Sequence (P0A3M5 whole entry): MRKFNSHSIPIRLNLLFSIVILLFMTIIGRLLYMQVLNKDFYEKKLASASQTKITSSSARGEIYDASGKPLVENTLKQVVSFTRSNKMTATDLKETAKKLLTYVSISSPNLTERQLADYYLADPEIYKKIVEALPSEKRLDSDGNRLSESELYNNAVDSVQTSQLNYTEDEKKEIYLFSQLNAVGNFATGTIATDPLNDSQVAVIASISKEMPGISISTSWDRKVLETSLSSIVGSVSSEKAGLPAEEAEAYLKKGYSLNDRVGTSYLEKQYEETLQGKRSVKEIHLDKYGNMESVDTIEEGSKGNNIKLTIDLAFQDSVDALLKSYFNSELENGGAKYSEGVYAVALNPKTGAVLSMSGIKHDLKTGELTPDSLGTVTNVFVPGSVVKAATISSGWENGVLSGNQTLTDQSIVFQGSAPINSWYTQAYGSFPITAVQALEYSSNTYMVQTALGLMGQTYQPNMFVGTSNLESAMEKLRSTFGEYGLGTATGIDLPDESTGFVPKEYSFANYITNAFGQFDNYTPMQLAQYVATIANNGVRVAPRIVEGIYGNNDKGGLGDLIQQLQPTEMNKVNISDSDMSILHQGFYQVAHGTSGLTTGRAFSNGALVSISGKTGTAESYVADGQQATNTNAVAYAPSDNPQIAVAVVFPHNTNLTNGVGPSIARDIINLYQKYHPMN
# experimental_protocol: Displacement of Biocillin FL from Streptococcus pneumoniae 1076 PBP2B
Mark Condition met only for IC50 values smaller than 200 nM; exact matches and larger values are Condition not met.

| compound | group |
| --- | --- |
| C[C@@H](O)[C@H]1C(=O)N2C(C(=O)O)=C([C@H]3CCCO3)S[C@H]12 | Condition met |
| C[C@@H](O)[C@H]1C(=O)N2C(C(=O)O)=C(SCCNC=N)C[C@H]12 [IMIPENEM ANHYDROUS] | Condition not met |
| CO/N=C(\C(=O)N[C@@H]1C(=O)N2C(C(=O)O)=C(COC(N)=O)CS[C@H]12)c1ccco1 | Condition not met |
| CC1(C)S[C@@H]2[C@H](NC(=O)Cc3ccccc3)C(=O)N2[C@H]1C(=O)O | Condition met |

Now look at this one.
Hello, is IC50 of the following compound strictly smaller than 200 nM? CC1(C)S[C@@H]2[C@H](NC(=O)[C@H](N)c3ccc(O)cc3)C(=O)N2[C@H]1C(=O)O Condition met

---

# experimental_protocol: Displacement of Biocillin FL from Streptococcus pneumoniae 3243 PBP1B
reported_endpoint: IC50 (µg/mL)
Report only the number, with the unit µg/mL understood.

Guide cases for IC50, answers given:
| molecule | result_units | IC50 |
| --- | --- | --- |
| CC1(C)S[C@@H]2[C@H](NC(=O)[C@H](N)c3ccc(O)cc3)C(=O)N2[C@H]1C(=O)O | µg/mL | 0.165 |
| C[C@@H](O)[C@H]1C(=O)N2C(C(=O)O)=C(SCCNC=N)C[C@H]12 [IMIPENEM ANHYDROUS] | µg/mL | 0.108 |
| CC1(C)S[C@@H]2[C@H](NC(=O)Cc3ccccc3)C(=O)N2[C@H]1C(=O)O | µg/mL | 0.01 |
| C[C@@H](O)[C@H]1C(=O)N2C(C(=O)O)=C([C@H]3CCCO3)S[C@H]12 | µg/mL | 0.001 |

Then this molecule:
Request the reported IC50 associated with CO/N=C(\C(=O)N[C@@H]1C(=O)N2C(C(=O)O)=C(COC(N)=O)CS[C@H]12)c1ccco1 0.075

Provenance of the data: ChEMBL document CHEMBL1649182
